Molecular target: T1, recombinant human IL-23R/Fc chimera (R&D Systems) (human, UniProt Q5VWK5 24-353)
T1 construct: bought; also called human IL-23R/Fc fusion protein; rhIL23RFc
T1 sequence (looked up): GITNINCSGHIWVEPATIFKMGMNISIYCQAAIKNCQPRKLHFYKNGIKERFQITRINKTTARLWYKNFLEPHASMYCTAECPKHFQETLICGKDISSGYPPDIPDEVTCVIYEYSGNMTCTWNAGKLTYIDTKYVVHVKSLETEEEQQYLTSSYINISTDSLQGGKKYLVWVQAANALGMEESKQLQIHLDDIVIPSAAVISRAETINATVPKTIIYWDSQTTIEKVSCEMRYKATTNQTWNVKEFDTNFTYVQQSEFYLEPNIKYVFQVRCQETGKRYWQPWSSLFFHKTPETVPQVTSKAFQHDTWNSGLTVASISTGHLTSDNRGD
Assay: competition ELISA against IL-23
This section presents binders with their documented Ratio IC50 to 056-53.H4E IC50 values.
readout.type: Ratio IC50 to 056-53.H4E IC50 (ratio)

binder="105-08-1C10 ATRIMER (designed binder) EPPTQKPKKIVNAKKDVVNTKMFEELKSRLDTLAQEVALLKEQQALQTVCLKGTKVHMKCFLAFTQTKTFHEASEDCISRGGTLSTPQTGSENDALYEYLRQSVGNEAEIWLGLNGSSVTNTWVDMTGARIAYKNWETEITAQPDGGWGYFGENCAVLSGAANGKWFDKRCRDQLPYICQFGIV" observed_measurement=5
binder="105-08-2B3 ATRIMER (designed binder) EPPTQKPKKIVNAKKDVVNTKMFEELKSRLDTLAQEVALLKEQQALQTVCLKGTKVHMKCFLAFTQTKTFHEASEDCISRGGTLSTPQTGSENDALYEYLRQSVGNEAEIWLGLNGSAITNTWVDMTGARIAYKNWETEITAQPDGGWGYFGENCAVLSGAANGKWFDKRCRDQLPYICQFGIV" observed_measurement=3.4
